I'd be grateful if you could share measured MDA-PCA-2B cells IC50 (nM), cytotoxicity of FN3 domain-drug conjugate for these entries.
systemName: human PSMA on tumor cells (LNCaP, MDA-PCA-2B, VCAP, 22Rv1) (human, UniProt Q04609 1-750)
Sequence (Q04609 whole entry): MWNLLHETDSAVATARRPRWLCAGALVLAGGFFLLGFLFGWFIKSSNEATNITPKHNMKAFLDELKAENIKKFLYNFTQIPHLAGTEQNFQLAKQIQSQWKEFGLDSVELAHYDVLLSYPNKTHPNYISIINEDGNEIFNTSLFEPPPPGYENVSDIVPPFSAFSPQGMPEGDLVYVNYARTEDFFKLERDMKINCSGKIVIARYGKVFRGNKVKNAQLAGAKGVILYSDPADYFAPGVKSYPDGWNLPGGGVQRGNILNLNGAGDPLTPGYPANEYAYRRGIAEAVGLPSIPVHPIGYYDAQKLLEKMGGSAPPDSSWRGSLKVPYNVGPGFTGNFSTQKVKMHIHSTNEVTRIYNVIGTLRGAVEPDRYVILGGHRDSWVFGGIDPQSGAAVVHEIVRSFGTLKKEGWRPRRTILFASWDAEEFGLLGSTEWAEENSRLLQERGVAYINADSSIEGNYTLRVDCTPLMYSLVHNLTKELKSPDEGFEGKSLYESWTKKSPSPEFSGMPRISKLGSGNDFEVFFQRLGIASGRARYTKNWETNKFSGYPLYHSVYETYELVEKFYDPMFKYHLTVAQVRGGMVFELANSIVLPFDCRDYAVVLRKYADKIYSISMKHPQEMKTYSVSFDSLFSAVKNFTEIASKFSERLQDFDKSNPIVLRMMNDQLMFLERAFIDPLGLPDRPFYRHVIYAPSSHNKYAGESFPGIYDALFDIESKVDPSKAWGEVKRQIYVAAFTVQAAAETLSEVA
assayText: cell-based or functional assay
Numbers only, in nM.

Guide cases for MDA-PCA-2B cells IC50 (nM), cytotoxicity of FN3 domain-drug conjugate, answers given:
binder	unitAbbreviation	resultValue
P234CR9_H01 (designed binder, not shown: C-terminal poly-histidine tag) LPAPKNLVVSRVTEDSARLSWEWWVIPGDFDSFLIQYQESEKVGEAIVLTVPGSERSYDLTGLKPGTEYTVSIYGVVNSGQWNDTSNPLSAIFTT	nM	151
P233FR9_H10 (designed binder, also called H10 FN3 domain; P233FR9_10; not shown: C-terminal poly-histidine tag) LPAPKNLVVSRVTEDSARLSWTAPDAAFDSFAIGYWEWDDDGEAIVLTVPGSERSYDLTGLKPGTEYPVYIAGVKGGQWSFPLSAIFTT	nM	5.8
P229CR5P819_H11 (designed binder, In the cytotoxicity assays it was conjugated to vc-MMAF (cysteine-maleimide chemistry or sortase reaction); also called P229CR9P819-H11; not shown: C-terminal poly-histidine tag) LPAPKNLVVSRVTEDSARLSWDIDEQRDWFDSFLIQYQESEKVGEAIVLTVPGSERSYDLTGLKPGTEYTVSIYGVYHVYRSSNPLSAIFTT	nM	107

Now consider the entry below.
Query block: Looking for the measured MDA-PCA-2B cells IC50 (nM), cytotoxicity of FN3 domain-drug conjugate of P233FR9P1001_H3-1 (designed binder, not shown: C-terminal poly-histidine tag) LPAPKNLVVSRVTEDSARLSWTAPDAAFDSFPIGYWEWDDDGEAIVLTVPGSERSYDLTGLKPGTEYHVYIAGVKGGQWSFPLSAIFTT , can you help?
Result block: 4.6
